# Tested on: intracellular MRSA; further: test concentration or dose not given here
# Type: cell-based, Staphylococcus aureus
# conditions: PKIS compound screen, Yes/No call
readout-type: effect

Some entries whose results are on file:
# compound, target-under-test, effect
data = [
    ("O=C(Nc1ccccc1F)NC1CCN(c2ccnc(Nc3ccc(F)cc3)n2)C1 (centres unmarked) [GSK1379722A]", "intracellular MRSA", "No"),
    ("CCn1c(-c2nonc2N)nc2c(C#CC(C)(C)O)nc(OCCNC)cc21 [GSK949675A]", "intracellular MRSA", "No"),
    ("Cn1cc(-c2ccc3c(c2)CCN3C(=O)Cc2cccc(F)c2)c2c(N)ncnc21 [GSK2603358A]", "intracellular MRSA", "No"),
    ("c1ccc(-c2cc3ccncc3cc2OC2CCNCC2)cc1 [GSK1122999D]", "intracellular MRSA", "No"),
    ("COc1ccc(Nc2nccc(N3CCC(NC(=O)Nc4cccc(OC)c4)C3)n2)cc1 (centres unmarked) [GSK1379742A]", "intracellular MRSA", "No"),
]

Endpoint output: effect of Cc1cccc(-c2nc(Nc3ccc4ncsc4c3)c3ccccc3n2)n1 [GW867588X] . Value?
No

Endpoint output: effect of COC(=O)c1cccc(NC(=O)NC2CCN(c3ccnc(Nc4ccc(OC)cc4)n3)C2)c1 (centres unmarked) [GSK1379746A] . Value?
No

Endpoint output: effect of COc1cc(Nc2nccc(N3CCC(NC(=O)C(C)c4ccc(Cl)cc4)C3)n2)cc(OC)c1OC (centres unmarked) [GSK1379757A] . Value?
No

Endpoint output: effect of Cc1nc(-c2ccccc2)n2nc(NCCCN3CCOCC3)ncc12 [GW874091X] . Value?
No
